- procedure.summary: log P value (octanol/water partition coefficient)
- Type: physicochemical
- recorded.conditions: octanol / aqueous buffer solution at pH 7
- Text: The log P value of the nonionic water-soluble agent may be 1.8 or less, 1.5 or less, 1.3 or less, or 1.0 or less, and may be −4.0 or more, −3.8 or more, −3.5 or more, −3.3 or more, −3.0 or more, −2.7 or more, or −2.5 or more. The “log P value” herein is a parameter that represents the tendencies of partitioning of a substance into water and octanol, and is a value commonly used as an index to determine the degree of hydrophilicity or hydrophobicity of a substance. […]

| compound | logP |
| --- | --- |
| OC[C@H]1O[C@H](O[C@H]2O[C@H](CO)[C@@H](O)[C@H](O)[C@H]2O)[C@H](O)[C@@H](O)[C@@H]1O | -1.7 |
| CCOC1=C(O)[C@@H]([C@@H](O)CO)OC1=O | -1.5 |
| Nc1ncnc2c1ncn2[C@@H]1O[C@H](CO)[C@@H](O)[C@H]1O | -1.1 |
| O=C1NCCN1CCO [1-(2-hydroxyethyl)-2-imidazolidinone] | -1.4 |
| OCC(O)CO | -1.8 |
